log10(EC50) reference
System: Human immunodeficiency virus 1
METHOD: Antiviral activity against HIV1 3B harboring reverse transcriptase E138K mutant infected in human MT4 cells assessed as protection against virus induced cytotoxicity after 5 days by MTT assay
Format: functional, cell-based
EXPERIMENTAL CONTEXT: Human immunodeficiency virus 1, 3B, MT4, 120 h
READOUT LABEL: log10(EC50) (log10 of the value in nM)

| MOLECULE | ASSAYED SYSTEM | log10(EC50) |
| --- | --- | --- |
| Cc1cc(C)c(Oc2nc(NC3CCN(Cc4ccc(F)cc4F)CC3)nc3ccsc23)c(C)c1 | Human immunodeficiency virus 1 | 2.24 |
| Cc1cc(C#N)cc(C)c1Oc1nc(NC2CCN(Cc3ccncc3)CC2)nc2ccsc12 | Human immunodeficiency virus 1 | 1.63 |
| Cc1cc(C#N)cc(C)c1Oc1nc(NC2CCN(Cc3ccc(NS(C)(=O)=O)cc3)CC2)nc2ccsc12 | Human immunodeficiency virus 1 | 0.84 |
| Cc1cc(C#N)cc(C)c1Oc1nc(NC2CCN(Cc3ccc(S(N)(=O)=O)cc3)CC2)nc2ccsc12 | Human immunodeficiency virus 1 | 0.46 |
| Cc1cc(C#N)cc(C)c1Oc1nc(NC2CCN(Cc3cccc(S(N)(=O)=O)c3)CC2)nc2ccsc12 | Human immunodeficiency virus 1 | 0.81 |
| CNS(=O)(=O)c1ccc(CN2CCC(Nc3nc(Oc4c(C)cc(C#N)cc4C)c4sccc4n3)CC2)cc1 | Human immunodeficiency virus 1 | 0.82 |
| CCOC(=O)c1ccc(CN2CCC(Nc3nc(Oc4c(C)cc(C#N)cc4C)c4sccc4n3)CC2)cc1 | Human immunodeficiency virus 1 | 3.01 |
| Cc1cc(C#N)cc(C)c1Oc1nc(Nc2ccc(C#N)cc2)nc(N)c1Br [ETRAVIRINE] | Human immunodeficiency virus 1 | 1.16 |
| Cc1cc(C#N)cc(C)c1Oc1nc(NC2CCN(Cc3cccc(C(N)=O)c3)CC2)nc2ccsc12 | Human immunodeficiency virus 1 | 1.14 |

* * *

The entries below come with measured selectivity ratio values attached.
METHOD: Selectivity index, ratio of CC50 for human mock-infected MT4 cells to EC50 for HIV1 3B harboring reverse transcriptase K103N mutant infected in human MT4 cells
Assay type: toxicity, cell-based
EXPERIMENTAL CONTEXT: MT4 cells (mock-infected for CC50, HIV-1 infected for EC50)

| COMPOUND STRUCTURE | selectivity ratio |
| --- | --- |
| Cc1cc(C#N)cc(C)c1Oc1nc(NC2CCN(Cc3ccncc3)CC2)nc2ccsc12 | 2090 |
| Cc1cc(C#N)cc(C)c1Oc1nc(NC2CCN(Cc3ccc(C(N)=O)cc3)CC2)nc2ccsc12 | 53800 |
| Cc1cc(C#N)cc(C)c1Oc1nc(NC2CCN(Cc3ccc(F)cc3)CC2)nc2ccsc12 | 16200 |
| Cc1cc(C)c(Oc2nc(NC3CCN(Cc4ccc(S(N)(=O)=O)cc4)CC3)nc3ccsc23)c(C)c1 | 3 |
| Cc1cc(C#N)cc(C)c1Oc1nc(NC2CCN(Cc3ccc(S(C)(=O)=O)cc3)CC2)nc2ccsc12 | 1800 |

* * *

METHOD: Selectivity index, ratio of CC50 for human mock-infected MT4 cells to EC50 for HIV1 3B harboring reverse transcriptase Y188L mutant infected in human MT4 cells
Type: toxicity, cell-based
EXPERIMENTAL CONTEXT: MT4 cells (mock-infected for CC50, HIV-1 infected for EC50)
READOUT LABEL: selectivity ratio

| COMPOUND STRUCTURE | READOUT QUALIFIER | OBSERVED VALUE |
| --- | --- | --- |
| CC(=O)NS(=O)(=O)c1ccc(CN2CCC(Nc3nc(Oc4c(C)cc(C#N)cc4C)c4sccc4n3)CC2)cc1 | > | 222 |
| Cc1cc(C)c(Oc2nc(NC3CCN(Cc4ccncc4)CC3)nc3ccsc23)c(C)c1 | = | 152 |
| CNS(=O)(=O)c1ccc(CN2CCC(Nc3nc(Oc4c(C)cc(C#N)cc4C)c4sccc4n3)CC2)cc1 | = | 647 |
| Cc1cc(C)c(Oc2nc(NC3CCN(Cc4ccc([N+](=O)[O-])cc4)CC3)nc3ccsc23)c(C)c1 | = | 24 |
